Data credit: patent US20250270315A1

# study_target: T1, full length human SIRPα v1 stably expressed on CHOK1 or 293F cells (human, UniProt P78324 31-504)
# T1 construct: whole, on cells; also called CHOK1-human SIRPα v1; CHOK1-hSIRPα v1
# T1 sequence (P78324 31-504): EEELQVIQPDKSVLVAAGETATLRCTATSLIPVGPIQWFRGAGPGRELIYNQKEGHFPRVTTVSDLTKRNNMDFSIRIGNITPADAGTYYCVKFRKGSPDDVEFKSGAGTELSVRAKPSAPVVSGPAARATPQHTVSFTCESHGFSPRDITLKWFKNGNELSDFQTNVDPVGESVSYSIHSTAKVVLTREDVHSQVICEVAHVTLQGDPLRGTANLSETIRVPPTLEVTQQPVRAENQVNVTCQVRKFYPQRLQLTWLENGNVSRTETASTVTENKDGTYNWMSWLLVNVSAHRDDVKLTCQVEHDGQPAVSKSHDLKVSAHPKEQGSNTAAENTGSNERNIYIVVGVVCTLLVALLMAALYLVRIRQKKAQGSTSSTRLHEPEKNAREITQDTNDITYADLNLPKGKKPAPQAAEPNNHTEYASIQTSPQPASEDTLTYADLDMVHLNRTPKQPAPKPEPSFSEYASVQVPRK
# measurement_notes: competitive FACS, mFc-CD47 ECD on CHOK1-human SIRPα v1 cells
pIC50: −log10 of the molar value.
Recorded measurements of pIC50, one per entry

{"columns": ["binder", "pIC50"],
 "data": [
  ["HEFLB (antibody, V domains shown) VH: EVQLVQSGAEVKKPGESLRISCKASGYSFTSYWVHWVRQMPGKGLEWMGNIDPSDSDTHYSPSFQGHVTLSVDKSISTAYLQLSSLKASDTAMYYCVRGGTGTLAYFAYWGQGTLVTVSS VL: DVVMTQSPLSLPVTLGQPASISCRSSQSLVHSYGNTYLYWFQQRPGQSPRLLIYRVSNRFSGVPDRFSGSGSGTDFTLKISRVEAEDVGVYYCFQGTHVPYTFGGGTKVEIK", 9.03],
  ["hu025.023 (antibody, V domains shown, Humanized 025; also called hu025.23) VH: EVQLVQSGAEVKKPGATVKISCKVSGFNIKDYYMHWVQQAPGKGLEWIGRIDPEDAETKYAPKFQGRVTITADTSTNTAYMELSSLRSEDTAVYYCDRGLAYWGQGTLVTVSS VL: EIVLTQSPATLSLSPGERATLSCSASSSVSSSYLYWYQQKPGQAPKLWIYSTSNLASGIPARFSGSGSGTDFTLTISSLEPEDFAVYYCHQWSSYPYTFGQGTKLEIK", 9.24],
  ["025c (antibody, V domains shown, also called chimeric antibody 025c; parental antibody of 025c) VH: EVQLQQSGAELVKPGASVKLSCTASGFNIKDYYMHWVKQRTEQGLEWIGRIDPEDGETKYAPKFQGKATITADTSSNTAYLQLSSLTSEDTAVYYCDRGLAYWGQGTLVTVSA VL: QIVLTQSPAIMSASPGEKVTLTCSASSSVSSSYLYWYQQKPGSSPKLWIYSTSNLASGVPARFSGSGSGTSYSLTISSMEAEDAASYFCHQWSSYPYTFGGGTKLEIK", 9.40],
  ["hu1H9G4 (antibody, V domains shown) VH: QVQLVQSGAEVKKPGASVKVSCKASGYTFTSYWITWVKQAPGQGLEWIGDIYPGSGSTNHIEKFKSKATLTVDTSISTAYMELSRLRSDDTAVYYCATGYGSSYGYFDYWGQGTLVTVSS VL: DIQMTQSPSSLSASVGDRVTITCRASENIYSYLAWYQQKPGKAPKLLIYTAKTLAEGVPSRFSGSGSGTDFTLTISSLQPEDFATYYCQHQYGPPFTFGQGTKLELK", 9.36]
]}
